test: Pharmacokinetics in plasma and brain after IV administration; assay type: in vivo; details: mouse; brain, IV 1 mg/kg, male C57BL/6 mice
quantityName: Tmax (h)

1: Nc1ccc(-c2cccs2)cc1NC(=O)c1cc2ccc(N3CCNCC3)cc2cn1
2: Nc1ccc(-c2ccccc2)cc1NC(=O)c1cc2ccc(N3CCNCC3=O)cc2cn1
stdin: Parameter check: reported Tmax is higher for which label, 1 or 2 ? In your reply, give the label of the chosen option.
stdout: 1
(1: 1 h, 2: 0.25 h)

a: Nc1ccc(-c2ccncc2)cc1NC(=O)c1cc2ccc(N3CCNCC3)cc2cn1
b: Nc1ccc(-c2ccc(F)cc2)cc1NC(=O)c1cc2ccc(N3CCNCC3)cc2cn1
stdin: Identify the entry with the smaller Tmax: a or b . In your reply, give the label of the chosen option.
stdout: a
(a: 0.25 h, b: 1 h)
